target: PDE4B1 (Homo sapiens, UniProt Q07343); construct: made in house; host or cells: SF21 insect cells (baculovirus; virus made in SF9 cells, pCR-Bac vector); assay: Inhibition of PDE4 activity (PDE4B1, SPA assay); assay type: biochemical; settings: recombinant PDE4B1, 0.5 μM cAMP; read-out: PDE4B1 Inhibitory values measured as -logIC50 (converted)
Sequence (Q07343 whole entry): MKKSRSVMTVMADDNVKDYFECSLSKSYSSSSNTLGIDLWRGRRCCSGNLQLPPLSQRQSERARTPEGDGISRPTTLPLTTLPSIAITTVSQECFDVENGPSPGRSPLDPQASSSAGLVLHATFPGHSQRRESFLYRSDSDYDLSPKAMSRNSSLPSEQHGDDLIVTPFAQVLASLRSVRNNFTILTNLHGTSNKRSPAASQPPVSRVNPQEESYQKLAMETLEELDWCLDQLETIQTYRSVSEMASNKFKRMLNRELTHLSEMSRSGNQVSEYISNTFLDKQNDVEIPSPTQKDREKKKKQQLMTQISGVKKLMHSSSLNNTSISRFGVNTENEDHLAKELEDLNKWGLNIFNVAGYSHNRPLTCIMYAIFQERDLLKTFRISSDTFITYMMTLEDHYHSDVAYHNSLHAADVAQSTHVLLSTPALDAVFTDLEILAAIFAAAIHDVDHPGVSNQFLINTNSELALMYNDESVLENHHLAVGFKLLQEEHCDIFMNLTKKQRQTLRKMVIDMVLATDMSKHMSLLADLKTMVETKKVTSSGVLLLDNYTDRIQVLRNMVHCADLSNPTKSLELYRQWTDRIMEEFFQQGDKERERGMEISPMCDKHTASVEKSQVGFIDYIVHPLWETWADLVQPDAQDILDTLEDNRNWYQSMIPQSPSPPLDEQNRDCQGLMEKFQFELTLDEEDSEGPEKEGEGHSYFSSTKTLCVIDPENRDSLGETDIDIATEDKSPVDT
Measured IC50 accompanies every entry in the list below.

Some solved cases for reference:
molecule: COc1ccc(C2=NN(C3CCN(C(=O)[C@@H](Cc4ccc(C(N)=O)cc4)NC(=O)c4c(C)[nH]c5c(-c6c(OCC7CC7)ccc7c6OCO7)ncnc45)CC3)C(=O)[C@@H]3CCCC[C@H]23)cc1OC [Example 11]
IC50: < 1 nM
--
molecule: COc1ccc(C2=NN(C3CCN(C(=O)[C@@H](Cc4ccc(N5CCC5=O)cc4)NC(=O)c4c[nH]c5c(-c6c(OCC7CC7)ccc7c6OCO7)ncnc45)CC3)C(=O)[C@@H]3CCCC[C@H]23)cc1OC [Example 112]
IC50: < 1 nM
--
molecule: COc1ccc(C2=NN(C3CCN(C(=O)[C@@H](Cc4cccc(C)c4)NC(=O)c4c(C)[nH]c5c(-c6c(OCC7CC7)ccc7c6OCO7)ncnc45)CC3)C(=O)[C@@H]3CCCC[C@H]23)cc1OC [Example 17]
IC50: < 1 nM
--
molecule: COc1ccc(C2=NN(C3CCN(C(=O)[C@@H](CCC(=O)N4CCCC4)NC(=O)c4c[nH]c5c(-c6c(OCC7CC7)ccc7c6OCO7)ncnc45)CC3)C(=O)[C@@H]3CCCC[C@H]23)cc1OC [Example 105]
IC50: 1 to 10 nM

Now turn to the next molecule.
Challenge: Quick one: IC50 for COc1ccc(C2=NN(C3CCN(C(=O)[C@@H](Cc4ccccc4)NC(=O)c4c(C)[nH]c5c(-c6c(OCC7CC7)ccc7c6OCO7)ncnc45)CC3)C(=O)C3(CCCC3)C2)cc1OC [Example 124] ?
Response given: 1 to 10 nM

====

Some compounds, each annotated with its measured IC50.
target: PDE4B1 (Homo sapiens, UniProt Q07343); construct: made in house; host or cells: SF21 insect cells (baculovirus; virus made in SF9 cells, pCR-Bac vector); assay: Inhibition of PDE4 activity (PDE4B1, SPA assay); type: biochemical; conditions: recombinant PDE4B1, 0.5 μM cAMP; read-out: PDE4B1 Inhibitory values measured as -logIC50 (converted)

Before answering, review these 2 worked examples.
structure_as_smiles: COc1ccc(C[C@H](NC(=O)c2c[nH]c3c(-c4c(OCC5CC5)ccc5c4OCO5)ncnc23)C(=O)N2CCC(N3N=C(c4ccc(OC)c(OC)c4)[C@H]4CCCC[C@H]4C3=O)CC2)cc1OC
measurement_type: IC50
experimental_result: 1 to 10 nM
--
structure_as_smiles: COc1ccc(C2=NN(C3CCN(C(=O)[C@@H](C)NC(=O)c4c[nH]c5c(-c6c(OCC7CC7)ccc7c6OCO7)ncnc45)CC3)C(=O)C(C)(C)C2)cc1OC
measurement_type: IC50
experimental_result: 1 to 10 nM

Challenge: # lookup: IC50 of COc1ccc(C2=NN(C3CCN(C(=O)[C@@H](Cc4ccccc4)NC(=O)c4c[nH]c5c(-c6c(OCC7CC7)ccc7c6OCO7)ncnc45)CC3)C(=O)[C@@H]3CCC[C@H]23)cc1OC
Response given: 1 to 10 nM

Challenge: Field request: IC50 | item: COc1ccc(C2=NN(C3CCN(C(=O)[C@@H](CCc4ccccc4)NC(=O)c4c[nH]c5c(-c6c(OCC7CC7)ccc7c6OCO7)ncnc45)CC3)C(=O)[C@@H]3CCCC[C@H]23)cc1OC
Response given: < 1 nM

Challenge: Any idea what IC50 was measured for COc1ccc(C2=NN(C3CCN(C(=O)[C@H](C)NC(=O)c4c[nH]c5c(-c6c(OCC7CC7)ccc7c6OCO7)ncnc45)CC3)C(=O)[C@@H]3CCCC[C@H]23)cc1OC ?
Response given: < 1 nM

Challenge: Param item = COc1ccc(C2=NN(C3CCN(C(=O)CNC(=O)c4c[nH]c5c(-c6c(OCC7CC7)ccc7c6OCO7)ncnc45)CC3)C(=O)C(C)(C)C2)c2c1OC(C)(C)C2 ; retrieve measured IC50.
Response given: 1 to 10 nM

Challenge: Recorded IC50 of COc1ccc(C2=NN(C3CCN(C(=O)[C@@H](Cc4ccc(F)c(F)c4)NC(=O)c4c[nH]c5c(-c6c(OCC7CC7)ccc7c6OCO7)ncnc45)CC3)C(=O)[C@@H]3CCCC[C@H]23)cc1OC , please.
Response given: 1 to 10 nM

Challenge: IC50 for COc1ccc(C2=NN(C3CCN(C(=O)[C@@H](Cc4ccccc4C(F)(F)F)NC(=O)c4c[nH]c5c(-c6c(OCC7CC7)ccc7c6OCO7)ncnc45)CC3)C(=O)[C@@H]3CCCC[C@H]23)cc1OC ?
Response given: 1 to 10 nM

Challenge: Any idea what IC50 was measured for COc1ccc(C2=NN(C3CCN(C(=O)[C@@H](CCC(=O)OCc4ccccc4)NC(=O)c4c[nH]c5c(-c6c(OCC7CC7)ccc7c6OCO7)ncnc45)CC3)C(=O)[C@@H]3CCCC[C@H]23)cc1OC ?
Response given: 1 to 10 nM
